# Tested On: Substance-P receptor (Homo sapiens, UniProt P25103)
# Sequence (P25103 whole entry): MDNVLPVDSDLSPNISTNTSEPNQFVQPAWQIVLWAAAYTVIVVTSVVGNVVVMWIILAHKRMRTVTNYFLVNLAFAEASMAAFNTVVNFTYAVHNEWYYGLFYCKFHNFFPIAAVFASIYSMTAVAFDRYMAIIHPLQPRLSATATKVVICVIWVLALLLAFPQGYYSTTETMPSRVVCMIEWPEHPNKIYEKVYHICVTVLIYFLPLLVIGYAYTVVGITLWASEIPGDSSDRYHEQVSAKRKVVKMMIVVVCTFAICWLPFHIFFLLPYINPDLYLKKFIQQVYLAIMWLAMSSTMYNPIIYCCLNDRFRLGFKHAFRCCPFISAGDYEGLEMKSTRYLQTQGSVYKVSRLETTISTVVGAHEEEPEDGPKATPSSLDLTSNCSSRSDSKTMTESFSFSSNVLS
# Assay Comment: Tested for binding affinity against Tachykinin receptor 1
Known IC50 of a selection of compounds

Compound: NCCCCCOC[C@H]1O[C@@H](OCCc2c[nH]c3ccccc23)[C@H](OCc2ccccc2)[C@@H](OCc2ccccc2)[C@@H]1OCc1ccccc1
U: nM
IC50: 120

Compound: C[C@@H](O)[C@@H]1NC(=O)[C@H](Cc2ccc(F)cc2)C2C(=O)[C@@H](Cc3c2[nH]c2ccccc32)NC(=O)[C@H](Cc2ccccc2)NC(=O)[C@@H]2CCCC2C(=O)[C@H](Cc2ccccc2)NC1=O (some centres not stated)
U: nM
IC50: 28
